Origin of measurements: ChEMBL document CHEMBL5136968

test: Displacement of [3H]-epibatidine from Aplysia californica Acetylcholine-binding protein measured after 1 hr by liquid scintillation counter
value-kind: pKi

{"columns": ["molecular-string", "recorded-measurement"],
 "data": [
  ["C[C@@H]1NC(=O)[C@H](C)NC(=O)[C@@H]2CSSC[C@H](NC(=O)CNC(=O)CN)C(=O)N[C@@H](CSSC[C@@H](C(N)=O)NC(=O)[C@H](Cc3ccc(OS(=O)(=O)O)cc3)NC(=O)[C@H](CC(=O)O)NC(=O)[C@H](CCC(N)=O)NC(=O)[C@H](CC(N)=O)NC(=O)[C@H](CC(N)=O)NC1=O)C(=O)N[C@@H](CO)C(=O)N[C@@H](Cc1cnc[nH]1)C(=O)N1CCC[C@H]1C(=O)N[C@@H](C)C(=O)N2", 9.4]
]}

Now turn to the next molecule.
The value of pKi measured for the molecule "C[C@@H]1NC(=O)[C@H](C)NC(=O)[C@@H]2CSSC[C@H](NC(=O)CNC(=O)CN)C(=O)N[C@@H](CSSC[C@@H](C(N)=O)NC(=O)[C@H](Cc3ccc(O)cc3)NC(=O)[C@H](CC(=O)O)NC(=O)[C@H](CCC(N)=O)NC(=O)[C@H](CC(N)=O)NC(=O)[C@H](CC(N)=O)NC1=O)C(=O)N[C@@H](CO)C(=O)N[C@@H](Cc1cnc[nH]1)C(=O)N1CCC[C@H]1C(=O)N[C@@H](C)C(=O)N2" turned out to be 8.96

---

molecular target: Neuronal acetylcholine receptor; alpha3/beta4 (Homo sapiens, UniProt P30926+P32297); test: Antagonist activity at human alpha3beta4 nAChR in SH-SY5Y cells assessed as inhibition of calcium flux by FLIPR assay; assay type: cell-based
Sequence (P30926 whole entry): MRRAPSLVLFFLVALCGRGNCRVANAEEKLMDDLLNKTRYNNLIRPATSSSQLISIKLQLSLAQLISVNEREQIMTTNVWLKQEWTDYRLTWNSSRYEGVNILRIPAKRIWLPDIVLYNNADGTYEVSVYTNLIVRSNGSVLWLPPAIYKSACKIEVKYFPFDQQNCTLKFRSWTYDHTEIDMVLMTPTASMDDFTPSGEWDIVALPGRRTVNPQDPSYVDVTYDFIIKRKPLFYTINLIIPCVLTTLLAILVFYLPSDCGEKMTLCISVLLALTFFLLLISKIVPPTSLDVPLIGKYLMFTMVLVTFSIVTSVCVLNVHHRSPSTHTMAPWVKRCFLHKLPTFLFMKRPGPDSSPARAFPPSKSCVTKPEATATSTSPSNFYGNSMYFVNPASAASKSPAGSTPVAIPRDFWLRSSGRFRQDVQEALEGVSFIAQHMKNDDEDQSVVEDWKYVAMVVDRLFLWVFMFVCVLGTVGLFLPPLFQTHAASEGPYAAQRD
Sequence (P32297 whole entry): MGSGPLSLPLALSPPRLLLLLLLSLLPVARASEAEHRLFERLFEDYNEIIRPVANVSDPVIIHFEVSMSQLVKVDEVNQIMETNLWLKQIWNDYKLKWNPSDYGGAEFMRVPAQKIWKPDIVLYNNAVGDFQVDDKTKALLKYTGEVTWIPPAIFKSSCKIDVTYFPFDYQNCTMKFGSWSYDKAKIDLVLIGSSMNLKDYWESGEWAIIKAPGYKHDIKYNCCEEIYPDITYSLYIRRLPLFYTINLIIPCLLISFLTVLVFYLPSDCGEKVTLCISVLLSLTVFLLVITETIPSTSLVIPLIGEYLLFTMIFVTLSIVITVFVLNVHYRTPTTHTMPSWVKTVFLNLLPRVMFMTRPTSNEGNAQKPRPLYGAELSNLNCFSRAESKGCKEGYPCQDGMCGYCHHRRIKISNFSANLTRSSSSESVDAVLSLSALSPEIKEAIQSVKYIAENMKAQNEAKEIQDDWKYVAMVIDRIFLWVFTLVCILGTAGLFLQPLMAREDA
Positions of bridges follow the written chain, without caps; N, C: chain ends. Non-standard residues stand in square brackets, D forms with d. Residues, ends and D or L forms follow the SMILES beside them. sY = N[C@@H](Cc1ccc(OS(=O)(=O)O)cc1)C(=O)O
Catalogue of pIC50 values
Remember, pIC50 is on a log scale: it is -log10 of the molar concentration.

Consider the following illustrative entries.
{"columns": ["molecule", "pIC50"],
 "data": [
  ["CSCC[C@@H]1NC(=O)[C@H](CC(N)=O)NC(=O)[C@@H]2CSSC[C@H](NC(=O)CN)C(=O)N[C@@H](CSSC[C@@H](C(N)=O)NC(=O)[C@H](Cc3ccc(O)cc3)NC(=O)[C@H](CC(=O)O)NC(=O)[C@@H]3CCCN3C(=O)[C@H](CC(N)=O)NC(=O)[C@H](CC(N)=O)NC1=O)C(=O)N[C@@H](CO)C(=O)N[C@@H](CC(=O)O)C(=O)N1CCC[C@H]1C(=O)N[C@@H](CCCNC(=N)N)C(=O)N2 (H-GCCSDPRCNMNNPDYC-NH2; disulfide 2-8, 3-16)", 6.46],
  ["CSCC[C@@H]1NC(=O)[C@H](CC(N)=O)NC(=O)[C@@H]2CSSC[C@H](NC(=O)CN)C(=O)N[C@@H](CSSC[C@@H](C(=O)O)NC(=O)[C@H](Cc3ccc(OS(=O)(=O)O)cc3)NC(=O)[C@H](CC(=O)O)NC(=O)[C@@H]3CCCN3C(=O)[C@H](CC(N)=O)NC(=O)[C@H](CC(N)=O)NC1=O)C(=O)N[C@@H](CO)C(=O)N[C@@H](CC(=O)O)C(=O)N1CCC[C@H]1C(=O)N[C@@H](CCCNC(=N)N)C(=O)N2 (H-GCCSDPRCNMNNPD[sY]C-OH; disulfide 2-8, 3-16)", 6.30],
  ["CSCC[C@@H]1NC(=O)[C@H](CC(N)=O)NC(=O)[C@@H]2CSSC[C@H](NC(=O)CN)C(=O)N[C@@H](CSSC[C@@H](C(N)=O)NC(=O)[C@H](Cc3ccc(OS(=O)(=O)O)cc3)NC(=O)[C@H](CC(=O)O)NC(=O)[C@@H]3CCCN3C(=O)[C@H](CC(N)=O)NC(=O)[C@H](CC(N)=O)NC1=O)C(=O)N[C@@H](CO)C(=O)N[C@@H](CC(=O)O)C(=O)N1CCC[C@H]1C(=O)N[C@@H](CCCNC(=N)N)C(=O)N2 (H-GCCSDPRCNMNNPD[sY]C-NH2; disulfide 2-8, 3-16)", 7.19]
]}

Okay, now this molecule:
Lab note: CSCC[C@@H]1NC(=O)[C@H](CC(N)=O)NC(=O)[C@@H]2CSSC[C@H](NC(=O)CN)C(=O)N[C@@H](CSSC[C@@H](C(=O)O)NC(=O)[C@H](Cc3ccc(O)cc3)NC(=O)[C@H](CC(=O)O)NC(=O)[C@@H]3CCCN3C(=O)[C@H](CC(N)=O)NC(=O)[C@H](CC(N)=O)NC1=O)C(=O)N[C@@H](CO)C(=O)N[C@@H](CC(=O)O)C(=O)N1CCC[C@H]1C(=O)N[C@@H](CCCNC(=N)N)C(=O)N2 (H-GCCSDPRCNMNNPDYC-OH; disulfide 2-8, 3-16) gave pIC50 of 5.87

---

pKi: −log10 of the molar value. Positions of bridges follow the written chain, without caps; N, C: chain ends. Residues, ends and D or L forms follow the SMILES beside them.
Each entry below carries its measured pKi, system: UniProt:P58154.

Known pKi results, listed for orientation:
{"columns": ["molecule", "pKi"],
 "data": [
  ["C[C@@H]1NC(=O)[C@H](C)NC(=O)[C@@H]2CSSC[C@H](NC(=O)CNC(=O)CN)C(=O)N[C@@H](CSSC[C@@H](C(=O)O)NC(=O)[C@H](Cc3ccc(OS(=O)(=O)O)cc3)NC(=O)[C@H](CC(=O)O)NC(=O)[C@H](CCC(N)=O)NC(=O)[C@H](CC(N)=O)NC(=O)[C@H](CC(N)=O)NC1=O)C(=O)N[C@@H](CO)C(=O)N[C@@H](Cc1cnc[nH]1)C(=O)N1CCC[C@H]1C(=O)N[C@@H](C)C(=O)N2", "< 4.00"],
  ["C[C@@H]1NC(=O)[C@H](C)NC(=O)[C@@H]2CSSC[C@H](NC(=O)CNC(=O)CN)C(=O)N[C@@H](CSSC[C@@H](C(=O)O)NC(=O)[C@H](Cc3ccc(O)cc3)NC(=O)[C@H](CC(=O)O)NC(=O)[C@H](CCC(N)=O)NC(=O)[C@H](CC(N)=O)NC(=O)[C@H](CC(N)=O)NC1=O)C(=O)N[C@@H](CO)C(=O)N[C@@H](Cc1cnc[nH]1)C(=O)N1CCC[C@H]1C(=O)N[C@@H](C)C(=O)N2", "< 4.00"]
]}

Now, please, on to the next molecule.
Query CSCC[C@@H]1NC(=O)[C@H](CC(N)=O)NC(=O)[C@@H]2CSSC[C@H](NC(=O)CN)C(=O)N[C@@H](CSSC[C@@H](C(=O)O)NC(=O)[C@H](Cc3ccc(O)cc3)NC(=O)[C@H](CC(=O)O)NC(=O)[C@@H]3CCCN3C(=O)[C@H](CC(N)=O)NC(=O)[C@H](CC(N)=O)NC1=O)C(=O)N[C@@H](CO)C(=O)N[C@@H](CC(=O)O)C(=O)N1CCC[C@H]1C(=O)N[C@@H](CCCNC(=N)N)C(=O)N2 (H-GCCSDPRCNMNNPDYC-OH; disulfide 2-8, 3-16) yields pKi of < 4.00

---

Positions of bridges follow the written chain, without caps; N, C: chain ends. Non-standard residues stand in square brackets, D forms with d. Residues, ends and D or L forms follow the SMILES beside them. sY = N[C@@H](Cc1ccc(OS(=O)(=O)O)cc1)C(=O)O
Notes on Ki obtained with Acetylcholine-binding protein (Lymnaea stagnalis, UniProt P58154).
Sequence (P58154 whole entry): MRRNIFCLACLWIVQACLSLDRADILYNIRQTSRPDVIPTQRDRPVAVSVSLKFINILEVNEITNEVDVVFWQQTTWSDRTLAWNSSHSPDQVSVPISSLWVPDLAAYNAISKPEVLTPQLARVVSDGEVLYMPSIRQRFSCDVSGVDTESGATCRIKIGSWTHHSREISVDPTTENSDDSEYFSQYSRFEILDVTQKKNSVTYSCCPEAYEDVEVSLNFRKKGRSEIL

Sample answers from the record:
{"columns": ["molecule", "recorded-measurement"],
 "data": [
  ["CSCC[C@@H]1NC(=O)[C@H](CC(N)=O)NC(=O)[C@@H]2CSSC[C@H](NC(=O)CN)C(=O)N[C@@H](CSSC[C@@H](C(N)=O)NC(=O)[C@H](Cc3ccc(O)cc3)NC(=O)[C@H](CC(=O)O)NC(=O)[C@@H]3CCCN3C(=O)[C@H](CC(N)=O)NC(=O)[C@H](CC(N)=O)NC1=O)C(=O)N[C@@H](CO)C(=O)N[C@@H](CC(=O)O)C(=O)N1CCC[C@H]1C(=O)N[C@@H](CCCNC(=N)N)C(=O)N2 (H-GCCSDPRCNMNNPDYC-NH2; disulfide 2-8, 3-16)", "> 100 µM"],
  ["CSCC[C@@H]1NC(=O)[C@H](CC(N)=O)NC(=O)[C@@H]2CSSC[C@H](NC(=O)CN)C(=O)N[C@@H](CSSC[C@@H](C(=O)O)NC(=O)[C@H](Cc3ccc(OS(=O)(=O)O)cc3)NC(=O)[C@H](CC(=O)O)NC(=O)[C@@H]3CCCN3C(=O)[C@H](CC(N)=O)NC(=O)[C@H](CC(N)=O)NC1=O)C(=O)N[C@@H](CO)C(=O)N[C@@H](CC(=O)O)C(=O)N1CCC[C@H]1C(=O)N[C@@H](CCCNC(=N)N)C(=O)N2 (H-GCCSDPRCNMNNPD[sY]C-OH; disulfide 2-8, 3-16)", "> 100 µM"]
]}

Next, consider the following molecule.
Measured Ki for this entry CSCC[C@@H]1NC(=O)[C@H](CC(N)=O)NC(=O)[C@@H]2CSSC[C@H](NC(=O)CN)C(=O)N[C@@H](CSSC[C@@H](C(N)=O)NC(=O)[C@H](Cc3ccc(OS(=O)(=O)O)cc3)NC(=O)[C@H](CC(=O)O)NC(=O)[C@@H]3CCCN3C(=O)[C@H](CC(N)=O)NC(=O)[C@H](CC(N)=O)NC1=O)C(=O)N[C@@H](CO)C(=O)N[C@@H](CC(=O)O)C(=O)N1CCC[C@H]1C(=O)N[C@@H](CCCNC(=N)N)C(=O)N2 (H-GCCSDPRCNMNNPD[sY]C-NH2; disulfide 2-8, 3-16) on Acetylcholine-binding protein (Lymnaea stagnalis, UniProt P58154): > 100 µM
